Test Name: drug combination growth inhibition, ovarian cancer – cell-based, oncology-focused library, rucaparib conditional, profiling panel (AID 1508598)
Experimental Setup: patient-derived ovarian cancer cells, CellTiter-Glo viability, 144 h; at 0.313 µM; OCI-P5x cells; with rucaparib 20 µM; hits give low values; 100% = cells with rucaparib alone
Calls of active or inactive are those of the source.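 Rule for the calls: active = normalized viability below 100% at a tested concentration; inactive = the rest.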
Quantity: viability

Identify measured viability associated with `CCC[C@H](Nc1nc(-c2ccc(NC(=O)NCC)c(OC)c2)ncc1C)c1cccnc1`
44.4% (active)

Identify measured viability associated with CC1COC2(CCN(c3nc(=O)c4cc(C(F)(F)F)cc([N+](=O)[O-])c4s3)CC2)O1 (stereo not given)
111% (inactive)

Identify measured viability associated with `O=C(NCCCNc1nc(Nc2cccc(NC(=O)N3CCCC3)c2)ncc1I)c1cccs1`
98.3% (active)

Identify measured viability associated with `C=C(c1ccc(C(=O)O)cc1)c1cc2c(cc1C)C(C)(C)CCC2(C)C`
115% (inactive)

Identify measured viability associated with `Cc1nc2c(-c3cnc(N)nc3)nc(N3CCOCC3)nc2n1C(C)C`
68.3% (active)

###

Test Name: JHH-DIPG-1 glioma cell viability, MIPE5.0 library, CellTiter-Glo luminescence, qHTS (AID 1347067);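 note: cells exposed to compound for 48 hours before readout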
Experimental Setup: JHH-DIPG-1 glioma viability, CellTiter-Glo ATP luminescence
Inconclusive results are not listed. Active and inactive are the calls of the source. The limit is not given here; nearly all actives have AC50 up to about 26 µM.
Quantity: AC50

Molecule	AC50
Cc1[nH]c(/C=C2\C(=O)Nc3ccc(F)cc32)c(C)c1C(=O)NCCN1CCCC1	10.2 µM (active)
C[C@]12CCC3=C4CCC(=O)C=C4CC[C@H]3[C@@H]1CC[C@@]2(O)CC#N	inactive
COc1cc(N2CCC(N(C)C)CC2)ccc1Nc1ncc(Cl)c(Nc2ccccc2P(C)(C)=O)n1	1.66 µM (active)
CN1C/C=C/CCOc2cccc(c2)-c2ccnc(n2)Nc2cccc(c2)C1	0.166 µM (active)
CC(C)CNc1ccnc(NCc2csc(-c3ccccc3)n2)n1	20.9 µM (active)

Identify measured AC50 associated with `O=C(O)CCCc1c[nH]c2ccccc12`
inactive

Identify measured AC50 associated with `O=c1ncn2nc(Sc3ccc(F)cc3F)ccc2c1-c1c(Cl)cccc1Cl`
inactive

Identify measured AC50 associated with `CNC(=O)[C@H](Cc1c[nH]c2ccccc12)NC(=O)[C@@H](CC(=O)NO)CC(C)C`
inactive

Identify measured AC50 associated with `CCN1CCN(CC(=O)Nc2ccc(-c3cccc4c(=O)cc(N5CCOCC5)oc34)c3sc4ccccc4c23)CC1`
12.9 µM (active)

Identify measured AC50 associated with `CO[C@H]1C[C@@H]2CC[C@@H](C)[C@@](O)(O2)C(=O)C(=O)N2CCCC[C@H]2C(=O)O[C@H]([C@H](C)C[C@@H]2CC[C@@H](OCCO)[C@H](OC)C2)CC(=O)[C@H](C)/C=C(/C)[C@@H](O)[C@@H](OC)C(=O)[C@H](C)C[C@H](C)/C=C\C=CC=C1C`
29.5 µM (active)

Identify measured AC50 associated with `COc1cccc2c1C(=O)c1c(O)c3c(c(O)c1C2=O)C[C@@](O)(/C(CO)=N/NC(=O)CCCCCN1C(=O)C=CC1=O)C[C@@H]3O[C@H]1C[C@H](N)[C@H](O)[C@H](C)O1`
2.95 µM (active)

Identify measured AC50 associated with `C1=C/COCc2cc(ccc2OCCN2CCCC2)Nc2nccc(n2)-c2cccc(c2)COC/1`
4.17 µM (active)

Identify measured AC50 associated with `CCC[C@H](NC(=O)[C@@H]1[C@H]2CCC[C@H]2CN1C(=O)[C@@H](NC(=O)[C@@H](NC(=O)c1cnccn1)C1CCCCC1)C(C)(C)C)C(=O)C(=O)NC1CC1`
18.6 µM (active)

Identify measured AC50 associated with `O=C(O)c1cc(O)c2c(c1)C(=O)c1cccc(O)c1C2=O`
inactive

Identify measured AC50 associated with `Cc1cnc(-c2ccccc2C(C)C)nc1NCc1ccc(-n2ccnn2)cc1`
inactive

###

Test Name: viability loss in pontine glioma line – cell-based, SU-DIPG-IV, MIPE4.0, CellTiter-Glo, qHTS, dose response (AID 1347063);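 note: compound exposure lasted 48 hours before the viability readout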
Experimental Setup: CellTiter-Glo ATP luminescence
Records with an inconclusive call do not appear. Activity calls are given as the source filed them. The limit is not given here; nearly all actives have AC50 up to about 30 µM.
Quantity: AC50

Worked examples, 7 compounds total:
Compound	AC50
Fc1cc(-c2cccc3ncc(-c4cnn(C5CCNCC5)c4)nc23)cc(F)c1CN1CCOCC1	18700 nM (active)
CCCCCCCCCCCC(CC1OC(=O)C1CCCCCC)OC(=O)C(CC(C)C)NC=O (stereo not drawn)	inactive
NS(=O)(=O)c1cccc2c1C(=O)c1cccc(O)c1C2=O	332 nM (active)
COc1cc(OC)c(/C=C/S(=O)(=O)Cc2ccc(OC)c(NCC(=O)O)c2)c(OC)c1	26.4 nM (active)
CC(=O)N1CCN(c2ccc(OCc3nn(C)c(C)c3-c3cccc4c(CCCOc5cc(C)c(Cl)c(C)c5)c(C(=O)O)n(Cc5cccnc5)c34)cc2)CC1	23500 nM (active)
CN(C)C1CCN(C(=O)c2ccc(NC(=O)Nc3nc(N4CCOCC4)nc(N4CCOCC4)n3)cc2)CC1	46.9 nM (active)
CC(C)OC(=O)[C@H](C)N[P@](=O)(OC[C@H]1O[C@@H](n2ccc(=O)[nH]c2=O)[C@](C)(F)[C@@H]1O)Oc1ccccc1	inactive

Lab note: next compound to report on.
Identify measured AC50 associated with `CC1(COc2ccc3c(c2)ncn3-c2ccc3cccc(N4CCC(N)CC4)c3n2)COC1`
1180 nM (active)

###

Test Name: drug combination growth inhibition, ovarian cancer – cell-based, oncology-focused library, rucaparib conditional, profiling panel (AID 1508598)
Experimental Setup: patient-derived ovarian cancer cells, CellTiter-Glo viability, 144 h; at 5 µM; OCI-P5x cells; without rucaparib; hits give low values
Threshold check on viability: strictly below 90% is label 1; on or above 90% is label 0.

Is viability of `CNC(=O)c1ccc(N2C(=S)N(c3ccc(C#N)c(C(F)(F)F)c3)C(=O)C2(C)C)cc1F` strictly below 90%?
label 0

Is viability of `CN1CCN(c2nc(C3=C(c4c[nH]c5ccccc45)C(=O)NC3=O)c3ccccc3n2)CC1` strictly below 90%?
label 0

Is viability of `Cn1cncc1[C@@](N)(c1ccc(Cl)cc1)c1ccc2c(c1)c(-c1cccc(Cl)c1)cc(=O)n2C` strictly below 90%?
label 1

Is viability of `CC1(C)CNc2cc(NC(=O)c3cccnc3NCc3ccncc3)ccc21` strictly below 90%?
label 0

Is viability of `Cc1cnc(NC(=O)Nc2cc(Br)c(C)cc2OC[C@@H]2CNCCO2)cn1` strictly below 90%?
label 1

###

Test Name: JHH-DIPG-1 glioma cell viability, MIPE5.0 library, CellTiter-Glo luminescence, qHTS (AID 1347067);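 note: cells exposed to compound for 48 hours before readout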
Experimental Setup: JHH-DIPG-1 glioma viability, CellTiter-Glo ATP luminescence
Records with an inconclusive call do not appear. The source made the active and inactive calls. No cut-off is given here; in the data, nearly all actives have AC50 up to about 26 µM.
Write down one outcome, taken from 1 (yes) (active), 0 (no) (inactive)

What did the test return for `O=C(Nc1cccnc1)c1cc(-c2ccnc(F)c2)ccc1OCc1ccccc1` ?
1 (yes)

What did the test return for `C[C@@H](OC[C@@]1(c2ccccc2)CC[C@]2(CCC(=O)N2)CN1)c1cc(C(F)(F)F)cc(C(F)(F)F)c1` ?
1 (yes)

What did the test return for `CN(C)CC(=O)N1CCC(c2ccc(NC(=O)c3ncc(C#N)[nH]3)c(C3=CCCCC3)c2)CC1` ?
0 (no)

What did the test return for `CC(C)(C(=O)NCC(F)(F)C(F)(F)F)C(=O)N[C@@H]1C(=O)Nc2ccccc2-c2ccccc21` ?
0 (no)

What did the test return for `O=C(Nc1cccc(Nc2ncc(Br)c(NCCc3cnc[nH]3)n2)c1)N1CCCC1` ?
1 (yes)

What did the test return for O=C1CCC[C@@H]2[C@H]3CCC[N+]4([O-])CCC[C@@H](CN12)[C@@H]34 (stereo not given in full) ?
0 (no)

What did the test return for `c1ccc2c(CCNc3ccc(Nc4ccncc4)cc3)c[nH]c2c1` ?
1 (yes)

What did the test return for `Nc1ccn([C@@H]2C(F)=C(CO)[C@@H](O)[C@H]2O)c(=O)n1` ?
0 (no)

What did the test return for `O=C(/C=C/C#Cc1cccc(NS(=O)(=O)c2ccccc2)c1)NO` ?
1 (yes)

What did the test return for `Cc1ccc(-c2nn(C(C)(C)CNC(=O)c3ccncc3)c3ncnc(N)c23)cc1` ?
1 (yes)

###

Test Name: viability loss in pontine glioma line – cell-based, SU-DIPG-XXV, MIPE5.0, CellTiter-Glo, qHTS, dose response (AID 1347065);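 note: cells exposed to compound for 48 hours before ATP readout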
Experimental Setup: CellTiter-Glo ATP luminescence
Records with an inconclusive call do not appear. Active and inactive are the calls of the source. Cut-off not given; nearly all actives show AC50 up to about 26 µM.
Write down one outcome, taken from True (active), False (inactive)

What did the test return for `Cc1nnn(C)c1-c1cnc2c3ccc(C(C)(C)O)cc3n([C@H](c3ccccc3)C3CCOCC3)c2c1` ?
True

What did the test return for `CNc1nc(Nc2cnn([C@H]3CCN(C4COC4)C[C@@H]3F)c2Cl)ncc1C(F)(F)F` ?
True

What did the test return for `COc1cc(C(C)C)c2c(c1)S(=O)(=O)N(COc1cc(=O)n3cccc(OCCN4CCCCC4)c3n1)C2=O` ?
True

What did the test return for COc1cc2c(cc1OC)C1CC(=O)C(CC(C)C)CN1CC2 (centres undefined) ?
False

What did the test return for `Cn1cc(C2=C(c3cn(C)c4cc([N+](=O)[O-])ccc34)C(=O)NC2=O)c2ccccc21` ?
True

What did the test return for `COc1cc(N2CCN(C)CC2)ccc1Nc1nccc(-c2cn(C)c3cnccc23)n1` ?
True

What did the test return for `CC(C)(C)OC(=O)CN(Cc1ccc(Cl)cc1)Cc1ccc([N+](=O)[O-])s1` ?
True

What did the test return for `CN1CCN(c2cccc(Nc3nc4c(-c5ccc(S(C)(=O)=O)cc5)cccn4n3)c2)CC1` ?
True

What did the test return for `CCN(CC)CCNc1ccc(C)c2sc3ccccc3c(=O)c12` ?
True

What did the test return for `O=S(=O)(Nc1ccc(-c2cccnc2)c2cccnc12)c1cccc(C(F)(F)F)c1` ?
True

What did the test return for `C[C@H](O)[C@@H]1C(=O)N2C(C(=O)O)=C(S[C@@H]3CN[C@H](CNS(N)(=O)=O)C3)[C@@H](C)[C@@H]12` ?
False

What did the test return for `CC(C)(C)NC(=O)Nc1cccc(Nc2ncc(F)c(NC(C)(C)CO)n2)c1` ?
True

What did the test return for `CN(C)C(=O)[C@H](O)[C@H](Cc1ccccc1)NC(=O)c1cc2cc(Cl)ccc2[nH]1` ?
False

What did the test return for `CC(C)C[C@H](NC(=O)c1cc2ccccc2s1)C(=O)N1CCN(C(=O)[C@H](CO)NS(=O)(=O)c2ccc(Cl)cc2Cl)CC1` ?
True

What did the test return for `O=C(CCCCCCC(=O)N/N=C/c1ccc(N(c2ccccc2)c2ccccc2)cc1)NO` ?
True

What did the test return for `CCCc1c(OCCCOc2ccc(OCC(=O)O)cc2)ccc(C(C)=O)c1O` ?
False

What did the test return for `Cc1cnc(CNC(=O)c2c(=O)c3ccc(N4CCCN(C)CC4)nc3n3c2sc2ccccc23)cn1` ?
False

What did the test return for `Nc1nccc2c1ncn2[C@@H]1C=C(CO)[C@@H](O)[C@H]1O` ?
False

What did the test return for `O=C(NC[C@H](O)CN1CCc2ccccc2C1)c1ccnc(NC2CCC2)c1` ?
False

What did the test return for `Nc1n[nH]c2nnc(-c3c(-c4ccccc4)nn4ccccc34)cc12` ?
False

What did the test return for `CO[C@H]1C[C@@H]2CC[C@@H](C)[C@@](O)(O2)C(=O)C(=O)N2CCCC[C@H]2C(=O)O[C@H]([C@H](C)C[C@@H]2CC[C@@H](OCCO)[C@H](OC)C2)CC(=O)[C@H](C)/C=C(/C)[C@@H](O)[C@@H](OC)C(=O)[C@H](C)C[C@H](C)/C=C\C=CC=C1C` ?
True

What did the test return for `NCCCC[C@H](NC(=O)[C@@H](NC(=O)[C@H](Cc1c[nH]c2ccccc12)NC(=O)[C@H](CCCCN)NC(=O)[C@H](CCCCN)NC(=O)[C@H](Cc1c[nH]c2ccccc12)NC(=O)[C@H](Cc1c[nH]c2ccccc12)NC(=O)[C@H](CCCCN)NC(=O)[C@@H](N)CCCCN)C(c1ccccc1)c1ccccc1)C(N)=O` ?
True

What did the test return for `Cc1nc(NC(=O)N2CCC[C@H]2C(N)=O)sc1-c1csc(C(C)(C)C)n1` ?
True

What did the test return for COc1ncc(Nc2ncc(C(C)N3CCN(S(C)(=O)=O)CC3)cc2-c2nc(C)nc(N)n2)cc1F (centres undefined) ?
True

What did the test return for `C[C@H](NC(=O)c1c(N)nn2cccnc12)c1cc2cccc(C#Cc3cnn(C)c3)c2c(=O)n1-c1ccccc1` ?
True

What did the test return for `CC(C)(O)c1coc(S(=O)(=O)NC(=O)Nc2c3c(cc4c2CCC4)CCC3)c1` ?
False

What did the test return for `NC(=NCCCCCCN=C(N)N=C(N)Nc1ccc(Cl)cc1)N=C(N)Nc1ccc(Cl)cc1` ?
True

What did the test return for C=C1C(=O)OC2/C=C(/C)CC/C=C(/C)CCC12 (centres undefined) ?
True

What did the test return for `O=C(/C=C\n1cnc(-c2cc(C(F)(F)F)cc(C(F)(F)F)c2)n1)NNc1ccccn1` ?
True

What did the test return for CC1CCC(n2c3cnccc3c3cnc(Nc4ccc5c(n4)CCN(C(=O)CO)C5)nc32)CC1 (centres undefined) ?
False

What did the test return for `C[C@]1(C(=O)N(CCCC(=O)O)Cc2cccc(Cl)c2)CCN1C(=O)c1csc2ccccc12` ?
False

What did the test return for `Cc1[nH]nc2ncc(C(=O)N3CCC[C@H]3c3ccc(Cl)cc3)cc12` ?
False

What did the test return for `CCc1ccc(/C=C2/SC(=S)NC2=O)cc1` ?
False

What did the test return for `CS(=O)(=O)N1CCc2c(-c3cnc(N)nc3)nc(N3CCOCC3)nc21` ?
True
